// provenance: patent US8969363B2

Target: PI3Kβ
Sequence (Q8BTI9 whole entry): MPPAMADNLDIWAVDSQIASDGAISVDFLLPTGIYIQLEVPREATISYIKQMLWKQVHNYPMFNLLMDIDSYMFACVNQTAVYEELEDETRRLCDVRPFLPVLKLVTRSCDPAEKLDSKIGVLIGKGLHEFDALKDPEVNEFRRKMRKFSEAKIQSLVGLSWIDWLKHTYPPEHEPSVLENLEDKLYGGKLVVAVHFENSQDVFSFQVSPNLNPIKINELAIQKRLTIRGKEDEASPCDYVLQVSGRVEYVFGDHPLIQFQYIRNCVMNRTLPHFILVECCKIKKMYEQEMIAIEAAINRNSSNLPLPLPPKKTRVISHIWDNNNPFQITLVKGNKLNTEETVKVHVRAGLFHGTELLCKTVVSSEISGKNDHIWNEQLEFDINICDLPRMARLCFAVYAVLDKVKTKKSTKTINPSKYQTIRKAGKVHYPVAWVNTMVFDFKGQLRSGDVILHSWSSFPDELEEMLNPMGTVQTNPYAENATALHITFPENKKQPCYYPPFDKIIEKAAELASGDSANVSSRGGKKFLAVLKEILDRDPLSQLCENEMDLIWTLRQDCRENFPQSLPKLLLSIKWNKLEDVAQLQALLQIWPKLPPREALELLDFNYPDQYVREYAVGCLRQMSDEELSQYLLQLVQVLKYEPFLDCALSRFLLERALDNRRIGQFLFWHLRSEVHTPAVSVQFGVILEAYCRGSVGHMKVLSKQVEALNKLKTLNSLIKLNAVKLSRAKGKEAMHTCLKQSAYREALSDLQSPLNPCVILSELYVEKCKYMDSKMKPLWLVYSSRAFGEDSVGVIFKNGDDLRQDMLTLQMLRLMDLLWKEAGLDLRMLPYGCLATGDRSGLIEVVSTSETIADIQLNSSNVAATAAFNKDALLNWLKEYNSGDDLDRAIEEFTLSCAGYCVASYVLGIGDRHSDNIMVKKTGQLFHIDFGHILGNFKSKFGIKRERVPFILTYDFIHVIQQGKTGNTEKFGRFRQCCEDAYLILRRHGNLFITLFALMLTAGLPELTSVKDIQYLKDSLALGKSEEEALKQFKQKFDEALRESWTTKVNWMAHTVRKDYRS
Assay text: PI3 Kinase HTRF assay, PI3Kβ
Format: biochemical, human
Condition: 10 μM PIP2, 10 μM ATP; 'Greater than 10 μM' and 'Greater than 1 μM to 10 μM'; read-out: PI3K β IC50
Form field: IC50 (one value per entry).

Take a look at these entries with their results.
C[C@H](Nc1nccc2nccn12)c1cc2cccc(Cl)c2c(=O)n1-c1ccccc1 [IV-4]: > 10 µM
C[C@H](Nc1nc(N)nc2cccnc12)c1cc2cccc(-c3cnn(C)c3)c2c(=O)n1-c1cccc(F)c1 [Compound I-38]: > 10 µM
C[C@H](Nc1nc(Cl)nc2cccnc12)c1cc2cccc(Cl)c2c(=O)n1-c1ccccc1 [Compound I-52]: > 10 µM

The measured IC50 associated with C[C@H](Nc1ncnc2cccnc12)c1cc2cccc(-c3cnn(C)c3)c2c(=O)n1-c1ccccc1 [Compound I-21] reads > 10 µM

The measured IC50 associated with C[C@H](Nc1nc(Cl)nc2cccnc12)c1cc2cccc(C(F)(F)F)c2c(=O)n1-c1ccccc1 [III-22] reads > 10 µM

###

Form field: pIC50 (one value per entry).
Target: PI3Kβ
Assay text: PI3 Kinase HTRF assay, PI3Kβ
Type: biochemical, human
Condition: 10 μM PIP2, 10 μM ATP; 'Greater than 10 μM' and 'Greater than 1 μM to 10 μM'; read-out: PI3K β IC50
pIC50: −log10 of the molar value.

Take a look at these entries with their results.
C[C@H](Nc1ccnc2ccnn12)c1cc2cccc(C(F)(F)F)c2c(=O)n1-c1cccc(F)c1: 5.00 to 6.00
Cc1cn2nccc(N[C@@H](C)c3cc4cccc(Cl)c4c(=O)n3-c3ccccc3)c2n1: < 5.00
Cc1cc(-c2cccc3nc([C@H](C)Nc4nc(N)nc5cccnc45)n(-c4ccccc4)c(=O)c23)ccn1: 5.00 to 6.00

The measured pIC50 associated with `C[C@H](Nc1ncnc2cccnc12)c1cc2cccc(-c3ccc(N)nc3)c2c(=O)n1-c1ccccc1` reads < 5.00

The measured pIC50 associated with `Cc1nc2c(N[C@@H](C)c3cc4cccc(C(F)(F)F)c4c(=O)n3-c3ccccc3)ncnc2s1` reads < 5.00

The measured pIC50 associated with `C[C@H](Nc1c(C#N)cnc2cccnc12)c1cc2cccc(C(F)(F)F)c2c(=O)n1-c1ccccc1` reads < 5.00

The measured pIC50 associated with `C[C@H](Nc1nc(O)nc2[nH]cnc12)c1cc2cccc(C(F)(F)F)c2c(=O)n1-c1cccc(F)c1` reads < 5.00

The measured pIC50 associated with `C[C@H](Nc1ncnc2ccnn12)c1cc2cccc(Cl)c2c(=O)n1-c1cccc(F)c1` reads 5.00 to 6.00

###

Test system: phospho-AKT in RAW 264.7 cells (PI3Kγ)
Assay text: PI3Kγ selective cellular assay: phospho-AKT in C5a stimulated RAW 264.7 cells
Assay type: cell-based
Condition: Mus musculus, RAW264.7, range with units in value, read-out: IC50 for phospho-AKT, RAW 264.7 cell model
Outcome measure: IC50

C[C@H](Nc1ncnc2cccnc12)c1cc2cccc(-c3cnn(C)c3)c2c(=O)n1-c1ccccc1: 100 to 1000 nM

The measured IC50 associated with `C[C@H](Nc1ncnc2[nH]cnc12)c1cc2cccc(C(F)(F)F)c2c(=O)n1-c1cccc(F)c1` reads 100 to 1000 nM

The measured IC50 associated with `CC(C)n1c([C@H](C)Nc2ncnc3cccnc23)cc2cccc(-c3ccc(=O)n(C)c3)c2c1=O` reads 100 to 1000 nM
